Test system: U251
Experiment: NCI60 one-dose screen
Format: cell-based
Conditions: Homo sapiens, U-251, read-out: Growth percent
Kindly supply the reported activity at 10 µM values for the records listed here.
Answers are plain numbers, in %.

Examples from the recorded data:
# molecule, unit-label, activity at 10 µM
measured = [
    ("CC[C@]12C=CCN3CC[C@@]4(c5ccc(OC)cc5N(C)[C@H]4[C@@](O)(C(=O)OC)[C@@H]1OC(=O)CCC[P+](c1ccccc1)(c1ccccc1)c1ccccc1OC)[C@@H]32", "%", -96.9),
    ("CCC12C=CCN3CC[C@@]4(c5ccc(OC)cc5N(C)[C@H]4[C@@](O)(C(=O)OC)[C@@H]1OC(C)=O)[C@@H]32 (stereo partly drawn)", "%", 99.4),
    ("CC[C@]12C=CCN3CC[C@@]4(c5ccc(OC)cc5N(C)[C@H]4[C@@](O)(C(=O)OC)[C@@H]1OC(=O)CCC[P+](c1ccc(F)cc1)(c1ccc(F)cc1)c1ccc(F)cc1)[C@@H]32", "%", 18.5),
    ("CC[C@]12C=CCN3CC[C@@]4(c5ccc(OC)cc5N(C)[C@H]4[C@@](O)(C(=O)OC)[C@@H]1OC(=O)CCCC[P+](c1ccc(OC)cc1)(c1ccc(OC)cc1)c1ccc(OC)cc1)[C@@H]32 [10b]", "%", -95.9),
    ("CC[C@]12C=CCN3CC[C@@]4(c5ccc(OC)cc5N(C)[C@H]4[C@@](O)(C(=O)OC)[C@@H]1OC(=O)CCCC[P+](c1ccc(C)cc1)(c1ccc(C)cc1)c1ccc(C)cc1)[C@@H]32 [10a]", "%", -93.6),
]

Below is a list of molecules. For each, state its recorded activity at 10 µM.
1. CCC12C=CCN3CCC4(c5ccc(OC)cc5N(C)C4C(O)(C(=O)OC)C1OC(=O)CCC[P+](c1ccc(C)cc1)(c1ccc(C)cc1)c1ccc(C)cc1)C32 (stereo not drawn)
2. CC[C@]12C=CCN3CC[C@@]4(c5ccc(OC)cc5N(C)[C@H]4[C@@](O)(C(=O)OC)[C@@H]1OC(=O)CCCC[P+](c1ccccc1)(c1ccccc1)c1ccccc1)[C@@H]32 [compound 4, reference compound]
3. CC[C@]12C=CCN3CC[C@@]4(c5ccc(OC)cc5N(C)[C@H]4[C@@](O)(C(=O)OC)[C@@H]1OC(=O)CCC[P+](C1CCCCC1)(C1CCCCC1)C1CCCCC1)[C@@H]32
4. CC[C@]12C=CCN3CC[C@@]4(c5ccc(OC)cc5N(C)[C@H]4[C@@](O)(C(=O)OC)[C@@H]1OC(=O)CCCC[P+](C1CCCCC1)(C1CCCCC1)C1CCCCC1)[C@@H]32 [10d]

1: -91.2; 2: 10.9; 3: -82.5; 4: -87.9
